# measurement protocol: Drug excretion in Sprague-Dawley rat urine treated with [14C]brivanib alaninate at 100 mg/kg, po administered as single dose via gavage by HPLC analysis
# Assay type: ADME, organism-based
# measurement setup: in vivo
Give Compound recovery for every item shown.
Response body: numeric value in %, unit text excluded.

Problem: Fill in the blank: the reported Compound recovery of Cc1c(O)cn2ncnc(Oc3ccc4[nH]c(CO)cc4c3F)c12 is ____.
Result: 0.4

Problem: Fill in the blank: the reported Compound recovery of Cc1cc2c(F)c(Oc3ncnn4cc(OS(=O)(=O)O)c(C)c34)ccc2[nH]1 is ____.
Result: 2.7

Problem: Fill in the blank: the reported Compound recovery of Cc1cc2c(F)c(Oc3ncnn4cc(OC[C@@H](C)OS(=O)(=O)O)c(C)c34)ccc2[nH]1 is ____.
Result: 0.8

Problem: Fill in the blank: the reported Compound recovery of Cc1c(OS(=O)(=O)O)cn2ncnc(Oc3ccc4[nH]c(C(=O)O)cc4c3F)c12 is ____.
Result: 5.1

Problem: Fill in the blank: the reported Compound recovery of Cc1c(OC[C@@H](C)O)cn2ncnc(Oc3ccc4[nH]c(C(=O)O)cc4c3F)c12 is ____.
Result: 0.5
